Measured values drawn from patent US11639364B2 for this set.

System: HEK293 cells
Assay: Inhibition of cell surface sialylation, lectin staining and flow cytometry, HEK293 cells
Assay type: cell-based, Human
Settings: Homo sapiens, 72 h, three days, SNA-I lectin binding, read-out: α2,6-Sia IC50
value.kind: IC50
State the value with its unit after it.

• COC(=O)C1(OC(C)=O)OC([C@H](OC(C)=O)[C@@H](COC(C)=O)OC(C)=O)[C@H](NC(=O)COC(C)=O)C(OC(C)=O)C1F (stereo partly drawn) = 54.1 µM
• COC(=O)C1(OC(C)=O)OC([C@H](OC(C)=O)[C@@H](COC(C)=O)OC(C)=O)[C@H](NC(=O)OC(C)(C)C)C(OC(C)=O)C1F (stereo partly drawn) = 28 µM
• CCOC(=O)N[C@@H]1C(OC(C)=O)C(F)C(OC(C)=O)(C(=O)OC)OC1[C@H](OC(C)=O)[C@@H](COC(C)=O)OC(C)=O (stereo partly drawn) = 1.57 µM
• C#CCCC(=O)N[C@@H]1C(OC(C)=O)C(F)C(OC(C)=O)(C(=O)OC)OC1[C@H](OC(C)=O)[C@@H](COC(C)=O)OC(C)=O (stereo partly drawn) [SiaFPen, reference compound] = 44.7 µM
• COC(=O)C1(OC(C)=O)OC([C@H](OC(C)=O)[C@@H](COC(C)=O)OC(C)=O)[C@H](NC(=O)C(F)(F)F)C(OC(C)=O)C1F (stereo partly drawn) [SiaFTFA, reference compound] = 41.4 µM

Let us move to another entry and its IC50.
Q: Enter measured IC50, system HEK293 cells, for the molecule shown: COC(=O)N[C@@H]1C(OC(C)=O)C(F)C(OC(C)=O)(C(=O)OC)OC1[C@H](OC(C)=O)[C@@H](COC(C)=O)OC(C)=O (stereo partly drawn)
A: 4.77 µM
